# credit: paper PMC4326595

- study-system: HDAC 3/NCOR1 (Homo sapiens, UniProt O15379)
- method-notes: HDAC-Glo I/II luminescent assay
pIC50: −log10 of the molar value.
measured-property: pIC50

| molecule | readout-number |
| --- | --- |
| COc1ccc(C=NNC(=O)CCCCCCC(=O)NO)cc1 [AB3] | 8.74 |

----------
- study-system: HDAC 6 (Homo sapiens, UniProt Q9UBN7)
- Sequence (Q9UBN7 whole entry): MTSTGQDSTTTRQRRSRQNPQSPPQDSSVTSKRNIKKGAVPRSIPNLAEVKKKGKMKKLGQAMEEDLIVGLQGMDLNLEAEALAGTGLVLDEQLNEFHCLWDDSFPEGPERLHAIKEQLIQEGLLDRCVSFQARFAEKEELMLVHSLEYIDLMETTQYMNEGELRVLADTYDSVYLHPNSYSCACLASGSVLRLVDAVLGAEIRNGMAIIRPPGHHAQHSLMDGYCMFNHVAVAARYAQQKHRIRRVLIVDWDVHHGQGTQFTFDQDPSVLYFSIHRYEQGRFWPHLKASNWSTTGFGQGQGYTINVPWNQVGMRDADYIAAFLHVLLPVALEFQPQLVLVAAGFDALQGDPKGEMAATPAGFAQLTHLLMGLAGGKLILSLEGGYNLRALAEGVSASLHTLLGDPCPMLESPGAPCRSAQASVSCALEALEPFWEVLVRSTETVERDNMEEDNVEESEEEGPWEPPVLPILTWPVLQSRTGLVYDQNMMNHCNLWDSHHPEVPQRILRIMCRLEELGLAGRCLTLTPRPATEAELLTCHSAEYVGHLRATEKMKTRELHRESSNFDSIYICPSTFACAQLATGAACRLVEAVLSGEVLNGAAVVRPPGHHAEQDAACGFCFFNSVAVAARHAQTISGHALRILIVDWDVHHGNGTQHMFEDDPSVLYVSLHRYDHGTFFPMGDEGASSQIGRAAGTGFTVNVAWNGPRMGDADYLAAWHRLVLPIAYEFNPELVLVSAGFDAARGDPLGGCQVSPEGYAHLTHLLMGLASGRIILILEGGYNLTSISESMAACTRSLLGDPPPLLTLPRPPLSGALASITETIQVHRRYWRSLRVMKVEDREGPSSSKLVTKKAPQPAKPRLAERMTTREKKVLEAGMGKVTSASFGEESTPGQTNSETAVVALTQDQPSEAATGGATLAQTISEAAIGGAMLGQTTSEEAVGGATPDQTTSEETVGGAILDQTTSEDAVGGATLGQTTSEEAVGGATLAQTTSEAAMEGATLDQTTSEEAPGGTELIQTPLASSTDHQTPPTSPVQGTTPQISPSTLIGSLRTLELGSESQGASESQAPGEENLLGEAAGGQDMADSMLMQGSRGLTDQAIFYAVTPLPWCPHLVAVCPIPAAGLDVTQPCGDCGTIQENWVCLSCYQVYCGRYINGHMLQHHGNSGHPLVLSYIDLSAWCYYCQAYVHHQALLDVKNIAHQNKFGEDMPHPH
pIC50: −log10 of the molar value.

| compound | pIC50 |
| --- | --- |
| COc1ccc(C=NNC(=O)CCCCCCC(=O)NO)cc1 [AB3] | 7.45 |

----------
- study-system: UniProt Q969S8
- Sequence (Q969S8 whole entry): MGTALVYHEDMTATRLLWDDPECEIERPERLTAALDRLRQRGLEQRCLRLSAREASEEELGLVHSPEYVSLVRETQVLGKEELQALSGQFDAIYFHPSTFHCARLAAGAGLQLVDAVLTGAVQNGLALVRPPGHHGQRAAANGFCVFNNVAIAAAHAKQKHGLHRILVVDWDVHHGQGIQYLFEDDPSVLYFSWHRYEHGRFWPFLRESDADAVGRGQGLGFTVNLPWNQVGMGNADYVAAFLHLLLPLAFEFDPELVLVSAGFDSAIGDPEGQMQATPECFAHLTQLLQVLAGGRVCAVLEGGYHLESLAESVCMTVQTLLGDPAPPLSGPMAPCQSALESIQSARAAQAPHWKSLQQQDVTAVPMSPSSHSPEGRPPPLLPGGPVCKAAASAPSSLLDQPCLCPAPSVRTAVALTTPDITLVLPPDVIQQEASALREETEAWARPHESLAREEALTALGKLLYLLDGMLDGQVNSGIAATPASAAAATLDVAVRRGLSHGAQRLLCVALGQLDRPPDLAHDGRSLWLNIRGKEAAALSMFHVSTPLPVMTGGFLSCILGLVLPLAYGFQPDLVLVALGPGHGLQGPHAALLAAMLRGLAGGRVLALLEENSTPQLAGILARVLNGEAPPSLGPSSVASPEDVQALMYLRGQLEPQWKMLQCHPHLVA
measured-property: IC50

| query-smiles | measured-property | result |
| --- | --- | --- |
| COc1ccc(C=NNC(=O)CCCCCCC(=O)NO)cc1 | IC50 | 11.1 nM |

----------
- study-system: HDAC 2 (Homo sapiens, UniProt Q92769)
- Sequence (Q92769 whole entry): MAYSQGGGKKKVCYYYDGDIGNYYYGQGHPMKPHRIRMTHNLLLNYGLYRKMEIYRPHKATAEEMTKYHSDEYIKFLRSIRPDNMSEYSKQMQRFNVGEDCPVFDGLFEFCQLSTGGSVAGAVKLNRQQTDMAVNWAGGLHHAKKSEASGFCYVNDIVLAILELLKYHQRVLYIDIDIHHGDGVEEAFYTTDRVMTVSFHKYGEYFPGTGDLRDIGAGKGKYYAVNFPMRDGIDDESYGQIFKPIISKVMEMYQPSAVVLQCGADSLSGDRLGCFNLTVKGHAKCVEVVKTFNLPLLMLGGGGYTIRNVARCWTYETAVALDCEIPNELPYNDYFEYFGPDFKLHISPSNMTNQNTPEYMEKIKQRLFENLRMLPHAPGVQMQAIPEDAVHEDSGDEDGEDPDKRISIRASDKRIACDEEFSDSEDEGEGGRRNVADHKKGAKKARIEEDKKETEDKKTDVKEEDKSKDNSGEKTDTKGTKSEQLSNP

| query-smiles | units-label | IC50 |
| --- | --- | --- |
| COc1ccc(C=NNC(=O)CCCCCCC(=O)NO)cc1 | nM | 3.12 |
